molecular target: T1, Abeta peptide (40-amino acid Abeta peptide, SEQ ID NO: 1), biotinylated (human, N-terminal biotin or C-terminal lysine-linked biotin, separated from the peptide by a PEG6 linker); test: BLI (Octet HTX), biotinylated Abeta on streptavidin sensors, 1 uM VHH, 1:1 fit
T1 construct: Synthesized by Genscript; also called amyloid beta; test peptide
T1 sequence (peptide, as listed by the source): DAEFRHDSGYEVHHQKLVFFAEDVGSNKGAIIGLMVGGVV
observation type: kon (M⁻¹ s⁻¹)

binder="vhhLib01-58 (VHH, The entry as printed includes HHHHHH) VHH: QVQLVESGGGLVQPGGSLRLSCAASGSIFSPNHMGWYRQAPGKQRELVAAIYSGGTTNYADSVKGRFTISRDNAKNTVYLQMNSLKPEDTAVYYCARRTFLRGWSGYLPWFDVWGQGTLVTVSS" assay_value=17000
binder="vhhLib02-91 (VHH, The entry as printed includes HHHHHH; also called 09BHK) VHH: EVQLVESGGGLVQPGGSLRLSCAASGFTVSDYHMSWYRQAPGKQRELVSVILSGGRTYYADSVKGRFTISRDNSKNTLYLQMNSLRAEDTAVYYCARADAIFPWFDVWGQGTLVTVSS" assay_value=10700
binder="vhhLib01-48 (VHH, The entry as printed includes HHHHHH) VHH: QVQLVESGGGLVQPGGSLRLSCAASGSIFSANIMGWYRQAPGKQRELVAAIVSGGYTNYADSVKGRFTISRDNAKNTVYLQMNSLKPEDTAVYYCARDQDAFDHVGQYFDHWGQGTLVTVSS" assay_value=21800
binder="vhhLib05-33 (VHH, The entry as printed includes a doubled TLVTVSS and HHHHHH; also called vhbLib05-33) VHH: EVQLLESGGGLVQPGGSLRLSCAASGFTFSSYAMSWVRQAPGKQREWVSAISGSGGSTYYADSVKGRFTISRDNSKNTLYLQMNSLRAEDTAVYYCARLQGVQSDEVYYNYFDVWGQGTLVTVSS" assay_value=4680
